# METHOD: yeast display, Sf9 membrane polyspecificity reagent, FACS + sequencing; frameworks hold sequencing errors
MEASURE_NAME: polyreactivity (PSR sort gate)

QVQLVESAGGLVQAGGSLRLSCAASGSTFVANAMGWYRQAPGKERELVARISRSTGSTYYADSVKGRFTISRDNAKNTVYLQMNSLKPEDTAVYYCAAPSVYYPQFDYWGQGTQVTVSS
high polyreactivity
QVQLVESGGGLGQAGGSLRLSCAASGFTFYAYVMGWYRQAPGKESELVAAISGSGSSTYYADSVKGRFTISRDNAKNTVDLEMNSLKPEDTAVYYCGAPQLYQYGGFGYWGQGTQVTVSS
high polyreactivity
QVQLVESGGGLVQAGGSLRLSCAASGRILPFNAMGWYRQAPGKERELVAAIRWRGSSTYYADSVKGRFTISRDIAKNTVYLQMNSLKPEDTAVYYCAAPSSVRGKVISADYGYWGQGTQVTVSS
high polyreactivity

// provenance: the nanobody polyreactivity screen of Harvey et al. (2022)
